B1: tRNA (parent)
chain: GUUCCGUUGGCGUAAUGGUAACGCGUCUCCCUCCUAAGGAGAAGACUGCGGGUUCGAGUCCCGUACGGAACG

- Variants of: B1
- assay procedure: yeast fitness relative to wild type (ratio to wild type); higher = fitter; tRNA-Arg(CCU), competitive growth, 37 C, YPD
This sample holds only a part of the variants without activity.
Where yeast fitness equals or exceeds 0.7, the correct label is Fulfilled; where it does not, the label is Not fulfilled.

**Query** Check this variant for yeast fitness at or above 0.7: GUUCCGUUGGCGUAAUGGUAACGCAUUUCCCUCGUAAGGAGAAGACUGCGGGUUCGAGUCCCGUACGGAACG [G25A C27U C34G]
**Result** Fulfilled

**Query** I'd appreciate it if you could say whether GUUCCGUUGGUGUAAUGGUAACGCGCCUCCCUCCUAAGGAGAAGACAGCAGGUUCGAGUCCCGUACGGAACG [C11U U26C U47A G50A] has yeast fitness at least equal to 0.7.
**Result** Not fulfilled

**Query** Decide: yeast fitness of GUUCCGUUGGCGUAAAGGUAACGCGUCUCCCUCUUAAGGAGAAGACUGCGGGUCCGAGUCCCGUACGGAACG [U16A C34U U54C] >= 0.7?
**Result** Not fulfilled

**Query** Hi, just wondering whether GUUCCGUUGGCGUAAAGGUAACGCGUCUCCCUCCUAAGGAGAAGACUGCGGGUUCGAGUCCCGUACGGCACG [U16A A69C] shows yeast fitness of 0.7 or higher.
**Result** Fulfilled

**Query** Determine whether this variant has yeast fitness no lower than 0.7: GUUCCGUUGGCGUAAUCGUAACCCGUCUCCCUCCUAAGGAGAAGACUGCGGGUUCGAGUCCCGUACGGAACG [G17C G23C]
**Result** Not fulfilled

**Query** Hi, just wondering whether GUUCGGUUGGCGUAAUCGUAACGCGUCUCCCUCCUAAGGAGAUGACUGCGGGUUCGAGUCCCGUACGGCACG [C5G G17C A43U A69C] shows yeast fitness of 0.7 or higher.
**Result** Not fulfilled

**Query** Item GUUCCGUUCGCGUACUGGUAACGCGUCUCCCUCCUAAGGAGAAGACUGCGGCUUCGAGUCCCGUACGGAACG [G9C A15C G52C] with yeast fitness of 0.7 or above?
**Result** Not fulfilled

**Query** Quick check: does GGUCCGUUGGCGUAAUGGUAAUGGGUCUCCCUCCUAAGGAGAAGACUGCGGGUUCGAGUCCCGUACGGCACG [U2G C22U C24G A69C] have yeast fitness greater than or equal to 0.7?
**Result** Not fulfilled

**Query** Threshold query (yeast fitness >= 0.7) on GUUCCGUUGGCGUAGUGGUAACGCGUCUCCCUCCUACGGAGAAGACUCCGGGUUCGAGUCCCGUACGGAACG [A15G A37C G48C]
**Result** Not fulfilled

**Query** Item GUUCCGUUGGCGUAAUGGUAACGCGUCUCCCUCCUAAGGAGAAGACUGGAGGUUCGAGUCCCGUACGCGACG [C49G G50A G68C A69G] with yeast fitness of 0.7 or above?
**Result** Not fulfilled
